Each entry below carries its reported Ke in the MVD assay, antagonist potency against [D-Ala2]deltorphin I.
# Target Entity: δ opioid receptors (Mus musculus, UniProt P32300)
# Construct: Bioassays Using Isolated Organ Preparations; from tissue; host or cells: isolated mouse vas deferens
# Sequence (P32300 whole entry): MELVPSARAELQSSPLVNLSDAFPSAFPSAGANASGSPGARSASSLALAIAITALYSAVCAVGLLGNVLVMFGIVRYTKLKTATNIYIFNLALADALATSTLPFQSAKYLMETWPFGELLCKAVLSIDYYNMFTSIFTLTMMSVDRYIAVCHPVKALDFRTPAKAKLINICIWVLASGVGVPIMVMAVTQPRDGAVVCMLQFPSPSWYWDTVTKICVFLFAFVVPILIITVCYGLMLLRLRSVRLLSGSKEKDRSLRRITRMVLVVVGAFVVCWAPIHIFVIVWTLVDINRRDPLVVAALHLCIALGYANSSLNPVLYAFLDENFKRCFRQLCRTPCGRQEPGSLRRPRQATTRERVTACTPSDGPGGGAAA
# Procedure Details: MVD assay: inhibition of electrically evoked contractions of the mouse vas deferens (δ antagonist Ke)
# Format: cell-based
# Run Parameters: δ agonist [D-Ala2]deltorphin I, means of 3-8 determinations ± SEM
# Experimental: a) Bioassays based on inhibition of electrically evoked contractions of the mouse vas deferens (MVD) and of the guinea pig ileum (GPI). […] The GPI and MVD bioassays were carried out as reported in P. W. Schiller et al., Biochem. Biophys. […] A log dose-response curve was determined with [Leu^5 ] enkephalin as standard for each ileum and vas preparation, and IC50 values of the compounds being tested were normalized according to A. A. Waterfield et al., Eur. J. Pharmacol. 58, 11-18 (1979). […]
Residues, ends and D or L forms follow the SMILES beside them.
Outcome Measure: Ke in the MVD assay, antagonist potency against [D-Ala2]deltorphin I

[
  {
    "Compound": "CC(C)[C@H]1NC(=O)[C@H]2CCCN2C(=O)[C@H](Cc2ccc3ccccc3c2)NC(=O)[C@H](NC(=O)[C@@H](N)Cc2ccc(O)cc2)CCCNC1=O [Example 8, H-Tyr-c[-D-Orn-2-Nal-D-Pro-D-Val-]] (HELM PEPTIDE1{Y.[O=C([C@@H](CCCN[*:3])N[*:1])[*:2]].[O=C([C@H](Cc1ccc2ccccc2c1)N[*:1])[*:2]].[dP].[dV]}$PEPTIDE1,PEPTIDE1,2:R3-5:R2$$$V2.0)",
    "Target Entity": "δ opioid receptors (Mus musculus, UniProt P32300)",
    "Assay Value": 26.1
  },
  {
    "Compound": "N[C@@H](Cc1ccc(O)cc1)C(=O)N[C@@H]1CCCNC(=O)CNC(=O)[C@H]2CCCN2C(=O)[C@H](Cc2ccc3ccccc3c2)NC1=O [H-Tyr-c[-D-Orn-2-Nal-D-Pro-Gly-], reference compound] (HELM PEPTIDE1{Y.[O=C([C@@H](CCCN[*:3])N[*:1])[*:2]].[O=C([C@H](Cc1ccc2ccccc2c1)N[*:1])[*:2]].[dP].G}$PEPTIDE1,PEPTIDE1,2:R3-5:R2$$$V2.0)",
    "Target Entity": "δ opioid receptors (Mus musculus, UniProt P32300)",
    "Assay Value": 202
  }
]
